# PROTOCOL NOTES: NCI Yeast Anticancer Drug Screen. Data for the rad50 strain (AID 155);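 also: 0% = growth of vehicle-only cultures of the same strain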
# CONDITION DETAILS: S. cerevisiae rad50 strain growth inhibition; at 50.0 µM; hits give high values
The panel holds about 79,000 compounds, 15% with a hit somewhere; the sample as a whole holds those more often. The source made the active and inactive calls. Rule as the data show it: active = growth inhibition above about 70%; inactive = the rest.
READOUT: growth inhibition

# example entries with known answers
COMPOUND	growth inhibition
CCOC(=O)C(C(=O)CC)C(=O)OCC	14.3% (inactive)
CCCCc1nc(CCCC)nc(CCCC)n1	-6.75% (inactive)
Cc1cc(C)c(C#[N+][O-])c(C)c1C#[N+][O-]	5.9% (inactive)
O[C@@H]1C=C(c2ccccc2)[C@H](c2ccccc2)C1	-3% (inactive)

Ask | State the recorded growth inhibition for this entry: CN1CCN(C(=S)N(C(=O)c2ccco2)c2ccccc2)CC1
Reply | -57.8% (inactive)

Ask | Could you do the same for O=[N+]([O-])c1ccc(N/N=C/CCCCO)c([N+](=O)[O-])c1 , please?
Reply | 13.3% (inactive)

Ask | Entry to check: O=C(NC(NC(NC(=O)c1ccc([N+](=O)[O-])cc1)c1ccc([N+](=O)[O-])cc1)c1ccc([N+](=O)[O-])cc1)c1ccc([N+](=O)[O-])cc1 (stereo unspecified)
Reply | 3.35% (inactive)

Ask | Input CC(C)(C)c1ccc(-c2nc3ccc([N+](=O)[O-])cc3c(=O)o2)cc1
Reply | 12.1% (inactive)

Ask | Follow-up entry: CC(C)C(C)(O)C#CC(C)(O)C(C)C (stereo unspecified)
Reply | 1.4% (inactive)

Ask | Record: C(=NCCN=Cc1ccccc1)c1ccccc1
Reply | -10.7% (inactive)

* * *

# PROTOCOL NOTES: NCI Yeast Anticancer Drug Screen. Data for the mlh1 rad18 strain (AID 175)
# CONDITION DETAILS: S. cerevisiae mlh1 rad18 strain growth inhibition; at 50.0 µM
Compounds without any hit were thinned out: in the full panel of roughly 79,000, 15% have a hit. The source made the active and inactive calls. Cut-off read from the data, not from the text of the source: active = growth inhibition above about 70%; inactive = the rest.
Response enum: yes (1) for active, no (0) for inactive

Check out these entries, answers already filled in.
> print(dat)
                                   molecule  discrete.label
1     Cc1ccccc1N1C(=O)[N+]2(CCCCC2)N=C1[O-]          no (0)
2  C[C@]12CC[C@@H]3c4cc(OCC(F)(F)F)c(O)cc4/C(=N/O)C[C@H]3[C@@H]1CC[C@@H]2O          no (0)
3  OCC(O)C(O)C(O)C(O)/C=N\Nc1ccccc1 (configuration not stated)         yes (1)

Ask | Hi, sorry to bother you, what did the test record for C#CCn1cc(F)c(=O)n(CC#C)c1=O ?
Reply | no (0)

Ask | Also CCOC(=O)CC1OCCO1 ?
Reply | no (0)

Ask | Again, but for Cc1ccc(/C(O)=C/c2nc3ccc([N+](=O)[O-])cc3nc2/C=C(\O)c2ccc(C)cc2)cc1
Reply | no (0)

Ask | Would you kindly repeat that for CN(C=C(C#N)C#N)c1ccccc1 ?
Reply | no (0)

* * *

# PROTOCOL NOTES: NCI Yeast Anticancer Drug Screen. Data for the rad50 strain (AID 155);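 also: 0% = growth of vehicle-only cultures of the same strain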
# CONDITION DETAILS: S. cerevisiae rad50 strain growth inhibition; at 50.0 µM; hits give high values
Compounds without any hit were thinned out: in the full panel of roughly 79,000, 15% have a hit.
READOUT: growth inhibition (%)
Just the number in %, nothing appended.

Example cases with answers are listed next.
MOLECULE	UNITS OF MEASURE	growth inhibition
O=C(Nc1cccc(Cl)c1Cl)Oc1cccc2ccccc12	%	21.4
N#CC(CN1CCOCC1)[N+](=O)[O-] (stereo not drawn)	%	-2.2
O=C(Cc1ccccc1)NN1C(=O)C(Cl)C1c1ccc(O)cc1 (stereo not drawn)	%	-27.9

Ask | Given CC(=O)Oc1cc(C)c(OC(C)=O)cc1C , state its recorded growth inhibition.
Reply | -11.3

Ask | Cool, now COC(=O)C1(NC(=O)C2(N3C(=O)c4ccccc4C3=O)CCCC2)CCCC1
Reply | -7.95

Ask | Note, next up: CCOc1ccccc1NC(=O)C1=C(C)NC(C)=C(C(=O)Nc2ccccc2OCC)C1c1ccc(NC(C)=O)cc1
Reply | -30.1

Ask | Input CC1COC(c2ccc(Cl)cc2)O1 (stereo not drawn)
Reply | 12.2

Ask | Now the molecule CC(=O)Oc1cccc2c1ccc1nonc12
Reply | 1.75
